Form field: half-life at 2 μM (one value per entry).
# Protocol Details: Metabolic stability in human hepatic cytosol assay
# Format: in vitro ADME
# Applied Conditions: 2 μM in pooled human liver cytosol, 1 mg/mL protein, pH 7.4, 37°, 1 mM NADPH
Give the quantity in h, number only.

Look at this compound and give its reported half-life at 2 μM. Cc1sc(N2CCN(C)CC2)nc1-c1ccc(C(=O)N[C@@H](CC(C)C)C(=O)N2C[C@@H](Cl)[C@H]3OCC(=O)[C@H]32)cc1
3.3

# repeat for CC(C)C[C@H](NC(=O)c1ccc(-c2csc(N3CCN(C)CC3)n2)c(F)c1)C(=O)N1C[C@@H](Cl)[C@H]2OCC(=O)[C@H]21
3

# repeat for Cc1sc(N2CCN(C)CC2)nc1-c1ccc(C(=O)N[C@@H](CC(C)C)C(=O)N2CC[C@H]3OCC(=O)[C@H]32)cc1 [Comparative Example 2, reference compound]
1.2

# repeat for CC(C)C[C@H](NC(=O)c1ccc(-c2nc(N3CCN(C)CC3)sc2F)cc1)C(=O)N1C[C@@H](Cl)[C@H]2OCC(=O)[C@H]21
4.5

# repeat for CC(C)C[C@H](NC(=O)c1ccc(-c2csc(N3CCN(C)CC3)n2)cc1)C(=O)N1C[C@H](Cl)[C@H]2OCC(=O)[C@H]21 [Comparative Example 1, reference compound]
0.4
